Can you tell me melting point for the items I'm about to list?

Could you tell me which melting point is on file for "Cn1cc(-c2cc(-c3cnc4ccccc4c3)ccn2)n(-c2ccc(C(C)(C)C#N)cc2)c1=O" ?
180 °C

So what does the record say about melting point for "O=C(Cc1ccccc1C(=O)O)Nc1cccc(/C=C/c2nc(C3CCCCCC3)cs2)c1" ?
189 to 190 °C

Can you share its melting point? I mean this molecule: "CCOC(=O)/C=C/c1c(C)nn(Cc2ccc(OCc3nc(-c4ccccc4)oc3C)cc2)c1C"
98 to 99 °C

Name the recorded melting point for "CSCn1c(Br)c(Br)c(C#N)c1-c1ccc(C(F)(F)F)cc1" .
140 to 145 °C

Which value of melting point has been reported for "COc1cc(C(=O)c2c(C)c(OC)c3ccc(C(=O)O)cn23)ccc1[N+](=O)[O-]" in the records?
287 °C

Given the molecule "CSc1cc(C(C)(C)C)n[nH]1" , what is its reported melting point?
135 to 136 °C

I would be grateful if you could share the reported melting point for "CC(C)CCSc1cc(C(=O)O)cc(N)c1-c1ccccc1" .
124 to 126 °C

# query: melting point of entry "O=c1c2cc(F)c(N3CCCC3)nc2n(C2CC2)c(=O)n1OCc1ccccc1"
184 to 186 °C

Any idea what its melting point is? The molecule is CCNCC1CCN(c2c(F)cc3c(=O)c(C(=O)O)cn(C4CC4C)c3c2F)C1 (centres undefined)
225 to 228 °C

* * *

What melting point was measured for each of the following?

Would you mind telling me what melting point value was observed for Fc1ccc(F)c(C(Sc2ccc(Cl)cc2)c2ccncc2Cl)c1 (stereo not drawn) ?
70 to 72 °C

Reported melting point, compound "COc1ccc(-c2cnc3cc4cn[nH]c4cc3n2)cc1F" : ____
175 to 179 °C

Quick check: melting point of "Cc1cc(C)nc(Nc2ccc(OC(F)F)cc2)n1" ?
81 to 82 °C

* * *

Give measured melting point for each item. Keep answers brief.

Find the recorded melting point belonging to "COC(=O)c1cc(F)c(OS(=O)(=O)c2c(C)cc(C)cc2C)nc1Nc1ccc(F)cc1F" and report it.
153 to 155 °C

May I ask what melting point has been recorded for "Cc1ccc(-c2c(NS(=O)(=O)c3ccc(C(C)(C)C)cc3)ncnc2OCCOc2ccc(NC(=O)C(C)(C)C)cn2)cc1" ?
140 to 141 °C

# melting point lookup, item "CN(C)S(=O)(=O)c1cc(-c2csc(=Nc3ccccc3)n2C2CC2)ccc1Cl"
156 to 159 °C

What value of measured melting point is listed for "CC(=O)N1CCc2ccc(Cl)c(S(=O)(=O)Cl)c2C1" ?
121 to 125 °C

Return reported melting point; argument: "COCc1ccc(-c2ccc3nnn(Cc4ccc5ncccc5c4)c3n2)cc1F"
200 to 201 °C

May I ask what melting point has been recorded for "CCc1nn(CC(N)=O)c(CC)c1Oc1cccc(C#N)c1" ?
159 to 160 °C

Record request: melting point value, item "CCOc1cc2c(cc1OC)C(c1ccc(C(=O)OC)cc1)=N[C@@H]1CCOC[C@H]21"
141 to 143 °C

# query: melting point of entry "CN(O)C(=O)NCc1cccs1"
106 to 107 °C

For the molecule shown here, C#CC1(OC(C)=O)CCC2C3CC(=C)C4=CC(=O)CCC4(C)C3CCC21C (centres undefined) , give the reported melting point.
158 to 160 °C

Reported melting point, molecule "COc1ccc(CNc2c(Cl)cnn(C)c2=O)cc1" : ____
94 to 96 °C

What does the record list as melting point for "N#CCOc1cccc2onc(N)c12" ?
133 to 136 °C

Entry under review: "O=C(Nc1cc2ccccc2cn1)c1cncnc1NCc1ccncc1" . Reported melting point?
218 to 220 °C

Return reported melting point; argument: O=C1N[C@H](Cc2ccc(C(F)(F)F)cc2)[C@H](c2ccc(Cl)nc2)O1 (racemic)
176 to 177 °C

Requested field: melting point. Item: "COC(=O)c1ccc2cc(NC(=O)OC(C)(C)C)ccc2c1"
178 to 180 °C

Query: melting point; subject: "O=[N+]([O-])c1cc(F)c(N2CCC3(CC2)CO3)c(F)c1"
96 to 97 °C

Look up melting point for this molecule: "Nc1ccc(N2CCN(Cc3ccccc3)CC2)cc1CS(=O)(=O)c1ccccc1"
141 to 143 °C

Which melting point is listed for "Nc1nc(-c2ccncc2)nc(N)c1N" ?
230 to 232 °C

Item "COC(=O)c1nc(-c2cc(N)c(Cl)cc2F)cc(N)c1Cl" has what recorded melting point?
99 to 101 °C

Suppose we examine the molecule CC(=O)OCCn1ccc(=O)c(OCc2ccccc2)c1C(OC(C)=O)c1ccc(F)cc1 (centres undefined) ; what melting point value has been reported?
118 to 119 °C
